Tested on: HAL-01 (B-Lymphoblastic Leukemia)
PROCEDURE DETAILS: Bliss excess, mean over the matrix (fraction); higher = more synergy
MEASURE NAME: Bliss excess

- O=C(c1cc(Cc2n[nH]c(=O)c3ccccc23)ccc1F)N1CCN(C(=O)C2CC2)CC1 [Olaparib] + Cc1c2c(nn1C)CSCc1cc(n(C)n1)CSc1cc(c3ccccc3c1)OCCCc1c(C(=O)O)n(C)c3c-2c(Cl)ccc13 [AZD5991] (first compound max 10 µM, 7x7, partner max 1 µM): -0.0229

Read off the recorded Bliss excess for Cc1cc2ncnn2cc1Nc1ncc2c(n1)n(C1CCOCC1)c(=O)n2C [AZD7648] + C[C@@H]1COCCN1C2=NC(=NC(=C2)C3(CC3)[S@](=N)(=O)C)C4=C5C=CNC5=NC=C4 [AZD6738] (first compound max 10 µM, 7x7, partner max 10 µM)
-0.0048

###

Test system: SKN (Other Solid Carcinomas)
PROCEDURE DETAILS: Bliss excess, mean over the matrix (fraction); higher = more synergy
Where Bliss excess equals or exceeds -0.03, the correct label is true; where it does not, the label is false.

• CC1(C)CCC(CN2CCN(c3ccc(C(=O)NS(=O)(=O)c4ccc(NCC5CCOCC5)c([N+](=O)[O-])c4)c(Oc4cnc5[nH]ccc5c4)c3)CC2)=C(c2ccc(Cl)cc2)C1 [Venetoclax] + C[C@@H](Nc1cc(F)cc(F)c1)c1cc(C(=O)N(C)C)cc2c(=O)cc(N3CCOCC3)oc12 [AZD8186] (first compound max 1 µM, 7x7, partner max 3 µM) = true
• C=CCn1c(=O)c2cnc(Nc3ccc(N4CCN(C)CC4)cc3)nc2n1-c1cccc(C(C)(C)O)n1 [AZD1775] + Nc1ccn([C@@H]2O[C@H](CO)[C@@H](O)C2(F)F)c(=O)n1 [Gemcitabine] (first compound max 1 µM, partner max 0.3 µM) = false

We next turn to a different compound, shown below.
Kindly determine if Bliss excess recorded for Cn1cnc2c(F)c(Nc3ccc(Br)cc3Cl)c(C(=O)NOCCO)cc21 [Selumetinib] + CC(C)n1c(=O)n(C)c2cnc3cc(F)c(-c4ccc(OCCCN5CCCCC5)nc4)cc3c21 [AZD1390] (first compound max 10 µM, 7x7, partner max 0.3 µM) is above or exactly -0.03.
false

###

System: ME-180 (Cervical Carcinoma)
PROCEDURE DETAILS: combination Emax (second highest fraction inhibited in the dose matrix, 72 h); higher = more inhibition; extreme values may be limits of the assay
Each entry below carries its reported combination Emax.
Answer with a number only.

- COc1nnc2ccc(N3CCC(c4ccc(OCCN5CCN(C)C(=O)[C@H]5C)cc4)CC3)nn12 [AZD5153] + CCN(CCO)CCCOc1ccc2c(Nc3cc(CC(=O)Nc4cccc(F)c4)[nH]n3)ncnc2c1 [AZD2811] (first compound max 1 µM, 7x7, partner max 1 µM): 0.524

Read off the recorded combination Emax for CN(CCO)CC[C@H](CSc1ccccc1)Nc1ccc(S(=O)(=O)NC(=O)c2ccc(N3CCC([C@@H](O)c4ccccc4-c4ccc(Cl)cc4)CC3)cc2)cc1S(=O)(=O)C(F)(F)F [AZD4320] + C1CN(CCC1(C(=O)N[C@@H](CCO)C2=CC=C(C=C2)Cl)N)C3=NC=NC4=C3C=CN4 [Capivasertib] (first compound max 1 µM, 7x7, partner max 3 µM)
0.507
